Sourced from paper PMC5315738

assay type: in vivo; conditions: human, plasma, oral
measured.attribute: half-life

Tell me the measured half-life of CN(C)CC=CC(=O)Nc1cc2c(Nc3ccc(F)c(Cl)c3)ncnc2cc1O[C@H]1CCOC1 , please.
~37 h
